Below, each entry is listed with its recorded binding normalized to PSGL-1.
Target: T1, Sulfotyrosine CCR2b biotin peptide (human)
T1 construct: also called CCR2b peptide
T1 peptide: TTFFD[sY]D[sY]GAPSHGGK(Biotin)
Assay: ELISA, 50 nM mAb
Non-standard residues stand in square brackets, D forms with d. No end group written: not given here. *: point of attachment. Biotin = O=C1N[C@H]2[C@H](CS[C@H]2CCCCC(=O)*)N1; sY = N[C@@H](Cc1ccc(OS(=O)(=O)O)cc1)C(=O)O
Answer with a number only.

*Q* Could you share which binding normalized to PSGL-1 value was measured for 19I01 (antibody, V domains shown, From mouse immunisation; only variable domains given; also called 19101) VH: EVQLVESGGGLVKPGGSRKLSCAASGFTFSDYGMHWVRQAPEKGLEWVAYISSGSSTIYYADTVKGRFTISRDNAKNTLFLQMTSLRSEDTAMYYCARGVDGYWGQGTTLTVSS VL: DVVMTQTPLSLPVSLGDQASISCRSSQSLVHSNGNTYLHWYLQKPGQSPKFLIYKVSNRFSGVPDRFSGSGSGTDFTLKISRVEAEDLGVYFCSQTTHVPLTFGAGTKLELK ?
*A* 0.02

*Q* Which value of binding normalized to PSGL-1 has been reported for 5E12 (antibody, V domains shown, Mouse hybridoma mAb; only variable domains given) VH: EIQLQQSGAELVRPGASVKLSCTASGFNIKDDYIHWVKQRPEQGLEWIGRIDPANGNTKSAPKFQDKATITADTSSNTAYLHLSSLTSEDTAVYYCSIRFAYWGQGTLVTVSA VL: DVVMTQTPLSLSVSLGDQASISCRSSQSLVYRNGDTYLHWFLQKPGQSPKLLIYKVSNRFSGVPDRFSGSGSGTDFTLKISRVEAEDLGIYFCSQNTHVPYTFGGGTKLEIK in the records?
*A* 0.03

*Q* Any idea what its binding normalized to PSGL-1 is? The binder is 10F01 (antibody, IgG4, V domains shown) VH: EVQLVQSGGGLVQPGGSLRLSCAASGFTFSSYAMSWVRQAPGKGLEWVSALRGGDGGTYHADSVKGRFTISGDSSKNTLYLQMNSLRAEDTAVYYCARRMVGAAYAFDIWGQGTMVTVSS VL: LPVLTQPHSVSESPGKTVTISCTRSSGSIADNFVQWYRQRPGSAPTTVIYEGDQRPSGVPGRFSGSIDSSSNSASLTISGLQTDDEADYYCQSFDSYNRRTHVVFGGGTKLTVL
*A* 0.03
